Reported IC50 by item:
molecular target: B-Raf delta1-415 (Homo sapiens, UniProt P15056); assay: B-Raf kinase inhibition (MAPH filter plate, 33P-ATP, MEK1 substrate); settings: read-out: Biochemical IC50 B-Raf
Sequence (P15056 416-766): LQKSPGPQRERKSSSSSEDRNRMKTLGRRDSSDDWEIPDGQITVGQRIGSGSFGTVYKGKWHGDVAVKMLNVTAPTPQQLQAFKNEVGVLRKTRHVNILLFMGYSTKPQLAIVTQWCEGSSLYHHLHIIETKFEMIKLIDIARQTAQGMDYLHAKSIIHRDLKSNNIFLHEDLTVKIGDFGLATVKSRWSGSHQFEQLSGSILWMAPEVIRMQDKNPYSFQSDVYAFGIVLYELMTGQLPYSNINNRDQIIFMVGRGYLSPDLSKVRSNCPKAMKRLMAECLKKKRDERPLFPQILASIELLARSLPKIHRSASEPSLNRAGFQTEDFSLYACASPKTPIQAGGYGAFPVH

Answered cases to consult:
{"compound": "CCOn1c(=O)c(-c2c(F)cccc2Cl)cc2cnc(Nc3ccc(N4CCOCC4)cc3)nc21 [Compound 128]", "IC50": "< 100 nM"}
{"compound": "COn1c(=O)c(-c2c(Cl)cccc2Cl)cc2cnc(Nc3cccc(NS(C)(=O)=O)c3)nc21 [Compound 119]", "IC50": "< 100 nM"}
{"compound": "O=c1c(-c2c(F)cccc2Cl)cc2cnc(Nc3ccccc3)nc2n1OCC1CCOCC1 [Compound 164]", "IC50": "> 1000 nM"}

Lab note: next compound to report on.
Prompt: Lab note: need IC50 for COn1c(=O)c(-c2c(Cl)cccc2Cl)cc2cnc(Nc3cc(C(=O)NCCO)n(C)c3)nc21 [Compound 82] on B-Raf delta1-415 (Homo sapiens, UniProt P15056), anyone have it?
Response: < 500 nM
